Numbers sourced from paper PMC4944838.

# target.desc: T1, Rad4-BRCT1,2 K56E (S. pombe, UniProt P32372 1-186, K56E)
# T1 sequence: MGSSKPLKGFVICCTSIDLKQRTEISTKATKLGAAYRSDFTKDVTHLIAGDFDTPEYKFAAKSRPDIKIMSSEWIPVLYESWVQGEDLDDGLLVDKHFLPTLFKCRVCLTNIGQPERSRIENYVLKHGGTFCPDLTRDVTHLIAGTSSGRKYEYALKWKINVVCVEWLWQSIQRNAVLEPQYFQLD
# test.summary: fluorescence polarisation
pKd: −log10 of the molar value. Where no end group is shown, it is not given here. [ ]: non-standard residue; d: D form. pT = C[C@@H](OP(=O)(O)O)[C@H](N)C(=O)O
experimental.endpoint: pKd

binder="RVES[pT]PPAFLP (also: fluorescein label, site not given here) [Crb2-pThr235 phosphopeptide, fluorescently labelled]" experimental_endpoint=pKd observed_measurement=4.93
